# target-desc: GST-RIPK2 fusion protein (human RIPK2 amino acids 1-310) (Homo sapiens (Human))
# Sequence (O43353 1-310): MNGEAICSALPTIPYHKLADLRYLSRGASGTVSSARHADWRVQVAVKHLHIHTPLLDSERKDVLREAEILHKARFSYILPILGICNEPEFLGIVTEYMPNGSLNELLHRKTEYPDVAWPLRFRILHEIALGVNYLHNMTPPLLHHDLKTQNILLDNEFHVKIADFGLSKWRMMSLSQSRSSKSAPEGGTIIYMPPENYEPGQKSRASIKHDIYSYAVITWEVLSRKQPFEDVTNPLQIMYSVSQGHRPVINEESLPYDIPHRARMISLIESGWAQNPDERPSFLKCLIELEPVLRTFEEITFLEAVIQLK
# protocol-notes: RIPK2 binding competition assay (TR-FRET, Tracer 199)
assay-readout: IC50

CCCS(=O)(=O)Nc1cc(-c2cnc3cc(OC)c(S(=O)(=O)C(C)(C)C)cn23)cc(OC(F)F)n1: 1 to 2.5 nM
COc1cc2ncc(-c3ccc(N)c(OC(F)F)c3)n2cc1S(=O)(=O)C(C)(C)C: 2.5 to 20 nM
COc1cc2ncc(-c3ccc(OC)c(NCCCO)n3)n2cc1S(=O)(=O)C(C)(C)C: 2.5 to 20 nM
CCCS(=O)(=O)Nc1cc(-c2cnn3ccc(S(=O)(=O)C(C)(C)C)cc23)cc(OC)c1OC: 1 to 2.5 nM
CC(C)(C)S(=O)(=O)c1ccc2ncc(-c3cc(F)nc(NCCC4(O)CCC4)c3)n2c1: 1 to 2.5 nM
CCCS(=O)(=O)Nc1cc(-c2cnc3cc(OC)c(S(=O)(=O)C(C)(C)C)cn23)ccc1F: 2.5 to 20 nM
COc1cc2ncc(-c3csnc3OC)n2cc1S(=O)(=O)C(C)(C)C: 2.5 to 20 nM
COc1cn2ncc(-c3cc(NS(C)(=O)=O)c(OC)c(OC)c3)c2cc1S(=O)(=O)C(C)(C)C: 1 to 2.5 nM
COc1cc2ncc(-c3cc(F)c(OC)c(NS(C)(=O)=O)c3)n2cc1S(=O)(=O)C(C)(C)C: 1 to 2.5 nM
CNC(=O)c1cn2c(-c3cc(F)nc(NCCCO)c3)cnc2cc1OC: 1 to 2.5 nM
COc1cc2ncc(-c3csc(N)n3)n2cc1S(=O)(=O)C(C)(C)C: 2.5 to 20 nM
COc1cc2ncc(-c3cc(C)c(OC)c(NCCCO)n3)n2cc1S(=O)(=O)C(C)(C)C: 2.5 to 20 nM
COc1cc2ncc(-c3cc(N)c(OC(F)F)c(F)c3)n2cc1S(=O)(=O)C(C)(C)C: 1 to 2.5 nM
CCCS(=O)(=O)Nc1cc(-c2cnc3cc(OC)c(C(C)(C)O)cn23)cc(F)c1OC: 1 to 2.5 nM
CCCS(=O)(=O)Nc1cc(-c2cnc3cc(OC)c(S(=O)(=O)C4CC4)cn23)ccc1OC: 2.5 to 20 nM
COc1cc2ncc(-c3cc(F)c(OC)c(N)c3F)n2cc1S(=O)(=O)C(C)(C)C: 2.5 to 20 nM
COc1cc(-c2cnc3cc(OC)c(S(=O)(=O)C(C)(C)C)cn23)cc(NS(C)(=O)=O)n1: 2.5 to 20 nM
CCCS(=O)(=O)Nc1cc(-c2cnc3cc(OC)c(S(=O)(=O)C(C)(C)C)cn23)cc(F)c1C: 2.5 to 20 nM
COc1cc2ncc(-c3cc(N)c(F)c(F)c3)n2cc1S(=O)(=O)C(C)(C)C: 2.5 to 20 nM
